Target: T1, EsCas13d, nuclease-dead (Eubacterium siraeum, UniProt B0MS50, R295A;H300A;R849A;H854A)
T1 sequence: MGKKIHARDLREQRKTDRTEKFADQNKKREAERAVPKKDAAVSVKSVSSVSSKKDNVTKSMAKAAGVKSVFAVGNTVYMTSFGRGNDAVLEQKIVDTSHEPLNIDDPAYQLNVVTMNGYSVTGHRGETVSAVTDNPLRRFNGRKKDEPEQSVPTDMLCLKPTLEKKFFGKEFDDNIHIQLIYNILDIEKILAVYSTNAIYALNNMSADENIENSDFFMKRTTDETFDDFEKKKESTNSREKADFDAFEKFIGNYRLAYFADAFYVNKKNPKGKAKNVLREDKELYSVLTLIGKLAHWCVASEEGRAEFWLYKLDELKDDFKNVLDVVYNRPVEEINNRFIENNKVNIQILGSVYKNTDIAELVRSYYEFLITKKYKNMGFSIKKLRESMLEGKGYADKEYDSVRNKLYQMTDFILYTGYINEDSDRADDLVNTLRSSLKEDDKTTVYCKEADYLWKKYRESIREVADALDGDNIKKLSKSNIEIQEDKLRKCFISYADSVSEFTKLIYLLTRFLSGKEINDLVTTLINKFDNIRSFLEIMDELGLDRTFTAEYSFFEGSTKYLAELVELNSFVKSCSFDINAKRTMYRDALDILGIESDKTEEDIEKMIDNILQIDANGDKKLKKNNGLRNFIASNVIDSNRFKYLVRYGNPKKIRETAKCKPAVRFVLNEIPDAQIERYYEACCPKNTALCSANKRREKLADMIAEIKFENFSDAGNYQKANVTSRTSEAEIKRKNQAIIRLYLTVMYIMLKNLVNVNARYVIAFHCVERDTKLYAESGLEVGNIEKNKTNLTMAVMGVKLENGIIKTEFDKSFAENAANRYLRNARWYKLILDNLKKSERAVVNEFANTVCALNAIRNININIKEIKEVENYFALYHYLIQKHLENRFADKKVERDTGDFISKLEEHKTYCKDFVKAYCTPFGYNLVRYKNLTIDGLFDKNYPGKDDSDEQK
Test: crRNA (strand 1, pre-loaded); Mg2+; 40 mM Tris-HCl pH 7.5, 150 mM NaCl, 6 mM MgCl2, 1 mM DTT, 0.1% Tween-20, 0.2 mg/ml BSA; 25 C; 10 min per concentration, then washed
Details: tags: His6-TwinStrep-SUMO cleaved; N-terminal SNAP kept (SNAP-Surface 488); label: 3' end held by stalled T7 RNA polymerase
I'd appreciate it if you could supply pKd values for the items below.
Note: pKd values are expressed as the negative base-10 logarithm of concentration in M.

Prompt line: Item under review: target 2 MT 5'PFS CUG 3'PFS ACU (mixed) RNA 1: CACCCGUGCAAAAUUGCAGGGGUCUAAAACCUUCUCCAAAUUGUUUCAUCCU RNA 2: GGGAAUGGAUCCACAUCUACGAAUUCCUGAGGAUGAAACAAUUUGGAGAAGACUAGAUCGGAAGAGCACACGU . Reported pKd?
Response line: 8.35

Prompt line: Item under review: target 1 C2G,C21A (mixed) RNA 1: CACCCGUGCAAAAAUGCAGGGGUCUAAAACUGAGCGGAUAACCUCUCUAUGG RNA 2: GGGAAUGGAUCCACAUCUACGAAUUCGUACAAUAGAGAGGUUAUCCGCUGACCGAGAUCGGAAGAGCACACGU . Reported pKd?
Response line: 7.44

Prompt line: Item under review: target 2 MT 5'PFS GUU 3'PFS AAC (mixed) RNA 1: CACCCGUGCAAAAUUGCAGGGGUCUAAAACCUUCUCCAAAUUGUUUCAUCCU RNA 2: GGGAAUGGAUCCACAUCUACGAAUUCGUUAGGAUGAAACAAUUUGGAGAAGAACAGAUCGGAAGAGCACACGU . Reported pKd?
Response line: 7.92

Prompt line: Item under review: target 1 MT 5'PFS GAC 3'PFS UUA (mixed) RNA 1: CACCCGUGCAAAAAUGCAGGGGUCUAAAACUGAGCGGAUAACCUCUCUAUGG RNA 2: GGGAAUGGAUCCACAUCUACGAAUUCGACCCAUAGAGAGGUUAUCCGCUCAUUAAGAUCGGAAGAGCACACGU . Reported pKd?
Response line: 7.88

Prompt line: Item under review: target 2 MT 5'PFS UUG 3'PFS CAA (mixed) RNA 1: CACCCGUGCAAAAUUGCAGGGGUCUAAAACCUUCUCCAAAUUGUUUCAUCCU RNA 2: GGGAAUGGAUCCACAUCUACGAAUUCUUGAGGAUGAAACAAUUUGGAGAAGCAAAGAUCGGAAGAGCACACGU . Reported pKd?
Response line: 8.00

Prompt line: Item under review: target 2 MT 5'PFS AAG 3'PFS UAC (mixed) RNA 1: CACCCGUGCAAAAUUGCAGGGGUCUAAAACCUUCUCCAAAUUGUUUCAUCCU RNA 2: GGGAAUGGAUCCACAUCUACGAAUUCAAGAGGAUGAAACAAUUUGGAGAAGUACAGAUCGGAAGAGCACACGU . Reported pKd?
Response line: 8.36

Prompt line: Item under review: target 1 insG 3' of 10,insC 3' of 5 (mixed) RNA 1: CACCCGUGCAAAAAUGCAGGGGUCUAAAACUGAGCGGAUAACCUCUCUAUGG RNA 2: GGGAAUGGAUCCACAUCUACGAAUUCGUACCAUAGAGAGGUUGAUCCGCCUCACCGAGAUCGGAAGAGCACACGU . Reported pKd?
Response line: 7.34

Prompt line: Item under review: target 2 MT 5'PFS GAC 3'PFS CGA (mixed) RNA 1: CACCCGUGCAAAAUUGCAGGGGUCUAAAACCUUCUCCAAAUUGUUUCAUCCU RNA 2: GGGAAUGGAUCCACAUCUACGAAUUCGACAGGAUGAAACAAUUUGGAGAAGCGAAGAUCGGAAGAGCACACGU . Reported pKd?
Response line: 7.87

Prompt line: Item under review: target 1 del11,del16 (mixed) RNA 1: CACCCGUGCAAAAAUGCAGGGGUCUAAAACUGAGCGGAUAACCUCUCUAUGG RNA 2: GGGAAUGGAUCCACAUCUACGAAUUCGUACCAUAGGAGGUAUCCGCUCACCGAGAUCGGAAGAGCACACGU . Reported pKd?
Response line: 7.17

Prompt line: Item under review: target 3 del3,del4 (mixed) RNA 1: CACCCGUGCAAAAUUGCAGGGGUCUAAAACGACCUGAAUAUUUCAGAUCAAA RNA 2: GGGAAUGGAUCCACAUCUACGAAUUCGUUUUUGAUCUGAAAUAUUCAUCUGCAGAUCGGAAGAGCACACGU . Reported pKd?
Response line: 7.86

Prompt line: Item under review: target 3 insG 3' of 6,insU 3' of 3 (mixed) RNA 1: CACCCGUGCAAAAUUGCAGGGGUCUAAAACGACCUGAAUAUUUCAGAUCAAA RNA 2: GGGAAUGGAUCCACAUCUACGAAUUCGUUUUUGAUCUGAAAUAUUCGAGGUUCUGCAGAUCGGAAGAGCACACGU . Reported pKd?
Response line: 8.16

Prompt line: Item under review: target 2 MT 5'PFS UUG 3'PFS UAU (mixed) RNA 1: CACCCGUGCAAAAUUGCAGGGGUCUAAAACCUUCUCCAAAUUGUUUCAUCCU RNA 2: GGGAAUGGAUCCACAUCUACGAAUUCUUGAGGAUGAAACAAUUUGGAGAAGUAUAGAUCGGAAGAGCACACGU . Reported pKd?
Response line: 8.07

Prompt line: Item under review: target 1 insU 3' of 14,insG 3' of 11 (mixed) RNA 1: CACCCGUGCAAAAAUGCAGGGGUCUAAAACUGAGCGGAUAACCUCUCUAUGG RNA 2: GGGAAUGGAUCCACAUCUACGAAUUCGUACCAUAGAGAUGGUGUAUCCGCUCACCGAGAUCGGAAGAGCACACGU . Reported pKd?
Response line: 7.10

Prompt line: Item under review: target 2 MT 5'PFS AAC 3'PFS CUC (mixed) RNA 1: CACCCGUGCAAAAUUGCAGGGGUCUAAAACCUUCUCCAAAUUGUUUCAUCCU RNA 2: GGGAAUGGAUCCACAUCUACGAAUUCAACAGGAUGAAACAAUUUGGAGAAGCUCAGAUCGGAAGAGCACACGU . Reported pKd?
Response line: 8.05

Prompt line: Item under review: target 3 insU 3' of 16,insU 3' of 4 (mixed) RNA 1: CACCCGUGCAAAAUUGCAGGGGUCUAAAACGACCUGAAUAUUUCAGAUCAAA RNA 2: GGGAAUGGAUCCACAUCUACGAAUUCGUUUUUGAUCUUGAAAUAUUCAGUGUCUGCAGAUCGGAAGAGCACACGU . Reported pKd?
Response line: 7.43

The measurements presented in this section are drawn from paper PMC10786891.
